Origin of measurements: ChEMBL document CHEMBL1145400

molecular target: Mitogen-activated protein kinase 14 (Homo sapiens, UniProt Q16539)
Sequence (Q16539 whole entry): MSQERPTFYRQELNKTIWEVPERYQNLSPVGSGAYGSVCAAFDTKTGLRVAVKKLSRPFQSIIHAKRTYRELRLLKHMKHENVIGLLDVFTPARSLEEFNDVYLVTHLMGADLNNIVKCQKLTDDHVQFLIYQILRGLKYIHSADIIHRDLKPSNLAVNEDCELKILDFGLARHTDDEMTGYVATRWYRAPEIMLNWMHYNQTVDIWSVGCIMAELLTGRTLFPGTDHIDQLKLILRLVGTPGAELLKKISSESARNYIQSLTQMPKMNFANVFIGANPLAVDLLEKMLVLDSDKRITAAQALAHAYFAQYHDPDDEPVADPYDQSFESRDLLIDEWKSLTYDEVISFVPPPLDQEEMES
pIC50: −log10 of the molar value.

{"ENTRY_SMILES": "Cc1cccc(-c2[nH]c(CNc3cccc(C#N)c3)nc2-c2ccc3nccnc3c2)n1", "TEST_TARGET": "Mitogen-activated protein kinase 14 (Homo sapiens, UniProt Q16539)", "pIC50": 5.99}

====

molecular target: TGF-beta receptor type-1 (Homo sapiens); assay: Inhibition of human recombinant ALK5 phosphorylation expressed in Sf9 cells
Sequence (P36897 whole entry): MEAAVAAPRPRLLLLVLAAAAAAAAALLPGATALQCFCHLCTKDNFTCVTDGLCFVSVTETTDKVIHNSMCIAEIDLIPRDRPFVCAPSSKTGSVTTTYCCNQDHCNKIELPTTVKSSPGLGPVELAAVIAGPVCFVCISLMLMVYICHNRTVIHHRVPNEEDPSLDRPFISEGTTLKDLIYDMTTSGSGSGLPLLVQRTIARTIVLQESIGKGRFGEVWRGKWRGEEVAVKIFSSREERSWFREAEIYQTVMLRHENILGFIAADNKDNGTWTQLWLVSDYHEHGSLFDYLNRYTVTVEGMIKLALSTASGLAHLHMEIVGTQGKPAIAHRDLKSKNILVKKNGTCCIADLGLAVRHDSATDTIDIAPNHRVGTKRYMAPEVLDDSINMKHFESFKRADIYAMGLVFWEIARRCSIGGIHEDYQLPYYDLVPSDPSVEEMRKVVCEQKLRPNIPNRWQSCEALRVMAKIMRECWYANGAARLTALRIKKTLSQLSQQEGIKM
pIC50: −log10 of the molar value.

{"ENTRY_SMILES": "CCc1cccc(-c2[nH]c(CNc3cccc(C#N)c3)nc2-c2ccc3nccnc3c2)n1", "pIC50": 6.92}
{"ENTRY_SMILES": "CCc1cccc(-c2[nH]c(CNc3ccc(C(N)=O)cc3)nc2-c2ccc3c(c2)OCO3)n1", "pIC50": 6.41}
{"ENTRY_SMILES": "Cc1cccc(-c2[nH]c(CNc3cccc(C#N)c3)nc2-c2ccc3c(c2)OCO3)n1", "pIC50": 7.34}
{"ENTRY_SMILES": "Cc1cccc(-c2[nH]c(CNc3ccc(C(N)=O)cc3)nc2-c2ccc3c(c2)OCO3)n1", "pIC50": 6.58}
{"ENTRY_SMILES": "CCc1cccc(-c2[nH]c(CNc3cccc(C(N)=O)c3)nc2-c2ccc3nccnc3c2)n1", "pIC50": 7.82}
{"ENTRY_SMILES": "Cc1cccc(-c2nc(CNc3cccc(C(N)=O)c3)[nH]c2-c2ccc3nccnc3c2)n1", "pIC50": 8.00}
{"ENTRY_SMILES": "CCc1cccc(-c2nc(CNc3cccc(C(N)=O)c3)[nH]c2-c2ccc3c(c2)OCO3)n1", "pIC50": 7.34}
{"ENTRY_SMILES": "Cc1cccc(-c2[nH]c(CNc3cccc(C#N)c3)nc2-c2ccc3nccnc3c2)n1", "pIC50": 7.92}
{"ENTRY_SMILES": "Cc1cccc(-c2[nH]c(CNc3cccc(C(N)=O)c3)nc2-c2ccc3c(c2)OCO3)n1", "pIC50": 7.68}
{"ENTRY_SMILES": "CCc1cccc(-c2nc(CNc3cccc(C#N)c3)[nH]c2-c2ccc3c(c2)OCO3)n1", "pIC50": 7.14}
{"ENTRY_SMILES": "CCc1cccc(-c2[nH]c(CNc3ccc(C#N)cc3)nc2-c2ccc3c(c2)OCO3)n1", "pIC50": 6.44}
{"ENTRY_SMILES": "CCc1cccc(-c2[nH]c(CNc3ccc(C#N)cc3)nc2-c2ccc3nccnc3c2)n1", "pIC50": 7.33}
{"ENTRY_SMILES": "Cc1cccc(-c2[nH]c(NCc3cccc(C#N)c3)nc2-c2ccc3c(c2)OCO3)n1", "pIC50": 7.62}
{"ENTRY_SMILES": "Cc1cccc(-c2[nH]c(NCc3ccc(C#N)cc3)nc2-c2ccc3c(c2)OCO3)n1", "pIC50": 6.82}
{"ENTRY_SMILES": "Cc1cccc(-c2[nH]c(CNc3ccc(C#N)cc3)nc2-c2ccc3c(c2)OCO3)n1", "pIC50": 6.76}
{"ENTRY_SMILES": "Cc1cccc(-c2[nH]c(CNc3ccc(C#N)cc3)nc2-c2ccc3nccnc3c2)n1", "pIC50": 7.38}
{"ENTRY_SMILES": "Cc1cccc(-c2nc(CNc3ccc(C(N)=O)cc3)[nH]c2-c2ccc3nccnc3c2)n1", "pIC50": 7.12}
{"ENTRY_SMILES": "CCc1cccc(-c2nc(CNc3ccc(C(N)=O)cc3)[nH]c2-c2ccc3nccnc3c2)n1", "pIC50": 7.04}
